- System name: SYK (Homo sapiens)
- Assay explanation: SYK inhibition assay: SYK-mediated phosphorylation of FAM-labeled substrate (Caliper microfluidic)
- Type: biochemical
- Run conditions: read-out: SYK Inhibition (pIC50) (converted)
Criterion: IC50 strictly under 30 nM. Met: Fulfilled. Not met: Not fulfilled.

[
  {
    "Smiles": "Cc1cccc(Nc2nc(N[C@@H]3CCCC[C@@H]3N)c(-c3ccccc3)c3c2C(=O)NC3)c1",
    "System name": "SYK (Homo sapiens)",
    "Category": "Not fulfilled"
  },
  {
    "Smiles": "Cc1cccc(Nc2nc(N(C)CCN)nc3c2C(=O)NC3)c1",
    "System name": "SYK (Homo sapiens)",
    "Category": "Not fulfilled"
  },
  {
    "Smiles": "Cc1cccc(Nc2nc(N[C@@H]3CCOC[C@@H]3N)c(F)c3c2C(=O)NC3)c1",
    "System name": "SYK (Homo sapiens)",
    "Category": "Fulfilled"
  },
  {
    "Smiles": "CC(C)C[C@@H](Nc1nc(-c2cnn(C)c2)c2c(c1F)CNC2=O)C(N)=O",
    "System name": "SYK (Homo sapiens)",
    "Category": "Fulfilled"
  },
  {
    "Smiles": "N[C@H]1COCC[C@H]1Nc1nc(-c2cnn(C3CC3)c2)c2c(c1F)CNC2=O",
    "System name": "SYK (Homo sapiens)",
    "Category": "Not fulfilled"
  },
  {
    "Smiles": "Cn1cc(-c2nc(N[C@@H]3CCCC[C@@H]3N)c(Cl)c3c2C(=O)NC3)cn1",
    "System name": "SYK (Homo sapiens)",
    "Category": "Fulfilled"
  },
  {
    "Smiles": "Cc1c(-c2nc(N[C@@H]3CCCC[C@@H]3N)nc3c2C(=O)NC3)cnn1C",
    "System name": "SYK (Homo sapiens)",
    "Category": "Not fulfilled"
  },
  {
    "Smiles": "Cn1cc(-c2nc(N[C@@H]3CCCC[C@@H]3N)c(Br)c3c2C(=O)NC3)cn1",
    "System name": "SYK (Homo sapiens)",
    "Category": "Fulfilled"
  }
]

* * *

- System name: SYK (Homo sapiens)
- Assay explanation: SYK inhibition assay: SYK-mediated phosphorylation of FAM-labeled substrate (Caliper microfluidic)
- Type: biochemical
- Run conditions: read-out: SYK Inhibition (pIC50) (converted)
Measurement name: IC50 (nM)

[
  {
    "Smiles": "CC(C)C[C@@H](Nc1cc2c(c(Nc3cccc(S(C)(=O)=O)c3)n1)C(=O)NC2)C(N)=O",
    "System name": "SYK (Homo sapiens)",
    "Relation sign": "=",
    "Reported": 50.1
  },
  {
    "Smiles": "N[C@H]1CCCC[C@H]1Nc1nc(-c2cnc3ccccn23)c2c(c1F)CNC2=O",
    "System name": "SYK (Homo sapiens)",
    "Relation sign": "=",
    "Reported": 63.1
  },
  {
    "Smiles": "Cc1cccc(Nc2nc(CCCN)nc3c2C(=O)NC3)c1",
    "System name": "SYK (Homo sapiens)",
    "Relation sign": ">",
    "Reported": 20000
  },
  {
    "Smiles": "N[C@H]1CCCC[C@H]1Nc1nc2c(c(-c3csc4ccccc34)n1)C(=O)NC2",
    "System name": "SYK (Homo sapiens)",
    "Relation sign": "=",
    "Reported": 39.8
  },
  {
    "Smiles": "CC(C)C[C@@H](Nc1nc(-c2cccs2)c2c(c1F)CNC2=O)C(N)=O",
    "System name": "SYK (Homo sapiens)",
    "Relation sign": "=",
    "Reported": 7.94
  },
  {
    "Smiles": "N[C@H]1COCC[C@H]1Nc1nc(-c2cnn(C(F)F)c2)c2c(c1F)CNC2=O",
    "System name": "SYK (Homo sapiens)",
    "Relation sign": "=",
    "Reported": 10
  },
  {
    "Smiles": "Cc1cccc(Nc2nc(N[C@@H]3CCCC[C@@H]3N)c(I)c3c2C(=O)NC3)c1",
    "System name": "SYK (Homo sapiens)",
    "Relation sign": "=",
    "Reported": 3.16
  }
]

* * *

- System name: SYK (Homo sapiens)
- Assay explanation: SYK inhibition assay: SYK-mediated phosphorylation of FAM-labeled substrate (Caliper microfluidic)
- Format: biochemical
- Run conditions: read-out: SYK Inhibition (pIC50) (converted)

[
  {
    "Compound": "CC(C)C[C@@H](Nc1nc(-c2cnn(C(F)F)c2)c2c(c1F)CNC2=O)C(N)=O [Example 71]",
    "System name": "SYK (Homo sapiens)",
    "IC50, nM": 7.94
  },
  {
    "Compound": "CC(C)C[C@@H](Nc1nc(-c2coc3ccccc23)c2c(c1F)CNC2=O)C(N)=O [Example 73]",
    "System name": "SYK (Homo sapiens)",
    "IC50, nM": 7.94
  },
  {
    "Compound": "N[C@H]1CCCC[C@H]1Nc1nc(-c2coc3ccccc23)c2c(c1F)CNC2=O [Example 50]",
    "System name": "SYK (Homo sapiens)",
    "IC50, nM": 2.51
  },
  {
    "Compound": "Cc1cccc(Nc2nc(N[C@@H]3CCCC(F)(F)[C@@H]3N)cc3c2C(=O)NC3)c1 (relative stereo) [Example 83]",
    "System name": "SYK (Homo sapiens)",
    "IC50, nM": 251
  },
  {
    "Compound": "N[C@H]1CCCC[C@H]1Nc1nc2c(c(-c3cnc4ccccn34)n1)C(=O)NC2 [Example 20]",
    "System name": "SYK (Homo sapiens)",
    "IC50, nM": 200
  },
  {
    "Compound": "Cc1csc(-c2nc(N[C@H](CC(C)C)C(N)=O)c(F)c3c2C(=O)NC3)c1 [Example 109]",
    "System name": "SYK (Homo sapiens)",
    "IC50, nM": 3.16
  },
  {
    "Compound": "Cc1cccc(Nc2nc(N3CCC(N)C3)nc3c2C(=O)NC3)c1 (stereo not drawn) [Example 45]",
    "System name": "SYK (Homo sapiens)",
    "IC50, nM": 794
  },
  {
    "Compound": "N[C@H]1COCC[C@H]1Nc1nc(-c2ccsc2)c2c(c1F)CNC2=O [Example 103]",
    "System name": "SYK (Homo sapiens)",
    "IC50, nM": 126
  },
  {
    "Compound": "Cc1ccc(-c2nc(N[C@H](CC(C)C)C(N)=O)c(F)c3c2C(=O)NC3)o1 [Example 115]",
    "System name": "SYK (Homo sapiens)",
    "IC50, nM": 316
  },
  {
    "Compound": "N[C@@H]1[C@H](Nc2nc(-c3cnn(C(F)F)c3)c3c(c2F)CNC3=O)CCCC1(F)F (relative stereo) [Example 68]",
    "System name": "SYK (Homo sapiens)",
    "IC50, nM": 100
  },
  {
    "Compound": "N[C@H]1CCCC[C@H]1Nc1cc2c(c(-c3cnn(C4CC4)c3)n1)C(=O)NC2 [Example 61]",
    "System name": "SYK (Homo sapiens)",
    "IC50, nM": 63.1
  },
  {
    "Compound": "Cc1cccc(Nc2nc(NCC(N)=O)nc3c2C(=O)NC3)c1 [Example 42]",
    "System name": "SYK (Homo sapiens)",
    "IC50, nM": 158
  },
  {
    "Compound": "CCn1cc(-c2nc(N[C@@H]3CCCC[C@@H]3N)c(F)c3c2C(=O)NC3)cn1 [Example 60]",
    "System name": "SYK (Homo sapiens)",
    "IC50, nM": 15.8
  },
  {
    "Compound": "Cc1cccc(Nc2nc(-c3cnn(C)c3)nc3c2C(=O)NC3)c1 [Example 7]",
    "System name": "SYK (Homo sapiens)",
    "IC50, nM": 1000
  },
  {
    "Compound": "N[C@H]1CCCC[C@H]1Nc1nc2c(c(Nc3cccc(F)c3)n1)C(=O)NC2 [Example 2]",
    "System name": "SYK (Homo sapiens)",
    "IC50, nM": 126
  },
  {
    "Compound": "CCn1cc(-c2nc(N[C@@H]3CCCC[C@@H]3N)nc3c2C(=O)NC3)cn1 [Example 18]",
    "System name": "SYK (Homo sapiens)",
    "IC50, nM": 79.4
  },
  {
    "Compound": "Cn1cc(-c2nc(N[C@@H]3CCCC[C@@H]3N)c(F)c3c2C(=O)NC3(C)C)cn1 [Example 120]",
    "System name": "SYK (Homo sapiens)",
    "IC50, nM": 251
  },
  {
    "Compound": "N[C@H]1COCC[C@H]1Nc1nc(-c2coc3ccccc23)c2c(c1F)CNC2=O [Example 94]",
    "System name": "SYK (Homo sapiens)",
    "IC50, nM": 3.16
  },
  {
    "Compound": "N[C@H]1CCCC[C@H]1Nc1nc2c(c(-c3cc4ccccc4[nH]3)n1)C(=O)NC2 [Example 47]",
    "System name": "SYK (Homo sapiens)",
    "IC50, nM": 2.51
  },
  {
    "Compound": "N[C@H]1CCCC[C@H]1Nc1nc(-c2cccs2)c2c(c1F)CNC2=O [Example 129]",
    "System name": "SYK (Homo sapiens)",
    "IC50, nM": 3.98
  },
  {
    "Compound": "CCOC[C@H](N)CNc1cc2c(c(Nc3cccc(C)c3)n1)C(=O)NC2 [Example 54]",
    "System name": "SYK (Homo sapiens)",
    "IC50, nM": 251
  },
  {
    "Compound": "COC[C@H](N)CNc1nc(-c2cnn(C)c2)c2c(c1F)CNC2=O [Example 101]",
    "System name": "SYK (Homo sapiens)",
    "IC50, nM": 63.1
  },
  {
    "Compound": "CCn1cc(-c2nc(N[C@@H]3CCCC[C@@H]3N)cc3c2C(=O)NC3)cn1 [Example 59]",
    "System name": "SYK (Homo sapiens)",
    "IC50, nM": 79.4
  },
  {
    "Compound": "N[C@H]1CCCC[C@H]1Nc1nc(-c2cnn3ccccc23)c2c(c1F)CNC2=O [Example 31]",
    "System name": "SYK (Homo sapiens)",
    "IC50, nM": 2.51
  },
  {
    "Compound": "CN[C@H]1CCCC[C@H]1Nc1nc2c(c(Nc3cccc(C)c3)n1)C(=O)NC2 [Example 38]",
    "System name": "SYK (Homo sapiens)",
    "IC50, nM": 631
  },
  {
    "Compound": "CC1NC(=O)c2c(-c3cnn(C)c3)nc(N[C@@H]3CCCC[C@@H]3N)c(F)c21 (stereo partly drawn) [Example 124]",
    "System name": "SYK (Homo sapiens)",
    "IC50, nM": 25.1
  },
  {
    "Compound": "Cc1cccc(Nc2nc(N[C@H]3COCC[C@H]3N)cc3c2C(=O)NC3)c1 [Example 86]",
    "System name": "SYK (Homo sapiens)",
    "IC50, nM": 2510
  },
  {
    "Compound": "CNC(=O)[C@@H](CC(C)C)Nc1nc(-c2cnn(C)c2)c2c(c1F)CNC2=O [Example 107]",
    "System name": "SYK (Homo sapiens)",
    "IC50, nM": 501
  },
  {
    "Compound": "CC(C)C[C@@H](Nc1nc(-c2ccc(C#N)s2)c2c(c1F)CNC2=O)C(N)=O [Example 116]",
    "System name": "SYK (Homo sapiens)",
    "IC50, nM": 7.94
  },
  {
    "Compound": "Cc1csc(-c2nc(N[C@@H]3CCCC[C@@H]3N)c(F)c3c2C(=O)NC3)c1 [Example 105]",
    "System name": "SYK (Homo sapiens)",
    "IC50, nM": 1
  }
]
